Hey, just so you know, these numbers are from patent US20210230570.

Below, each of the proteins is paired with its reported kcat value.
# ASSAYED SYSTEM: Factor X (FX), P00742
# Sequence (P00742 whole entry, looked up): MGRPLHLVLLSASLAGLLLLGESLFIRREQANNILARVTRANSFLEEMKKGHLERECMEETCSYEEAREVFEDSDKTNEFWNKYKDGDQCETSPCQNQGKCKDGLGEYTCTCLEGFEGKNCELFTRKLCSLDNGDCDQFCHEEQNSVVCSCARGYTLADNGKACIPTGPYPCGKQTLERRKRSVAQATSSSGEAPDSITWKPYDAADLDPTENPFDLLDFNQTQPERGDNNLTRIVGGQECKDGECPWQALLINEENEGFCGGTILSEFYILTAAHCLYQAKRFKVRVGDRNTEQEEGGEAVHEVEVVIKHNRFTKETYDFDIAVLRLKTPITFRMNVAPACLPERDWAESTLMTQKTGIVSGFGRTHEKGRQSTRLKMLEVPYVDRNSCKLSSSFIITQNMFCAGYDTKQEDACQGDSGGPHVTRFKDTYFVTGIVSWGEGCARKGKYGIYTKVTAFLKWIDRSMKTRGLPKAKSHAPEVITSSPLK
PARAMETER MEASURED: kcat

• FIXa-K247N/N249S/R318Y/R338E/T343R/R403E (protein) chain 1: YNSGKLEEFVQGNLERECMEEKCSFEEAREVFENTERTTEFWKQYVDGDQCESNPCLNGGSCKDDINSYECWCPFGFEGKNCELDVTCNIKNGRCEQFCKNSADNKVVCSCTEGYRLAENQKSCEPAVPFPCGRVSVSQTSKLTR chain 2: VVGGEDAKPGQFPWQVVLNGKVDAFCGGSIVNEKWIVTAAHCVETGVKITVVAGEHNIEETEHTEQNRSVIRIIPHHNYNAAINKYNHDIALLELDEPLVLNSYVTPICIADKEYTNIFLKFGSGYVSGWGRVFHKGYSALVLQYLRVPLVDRATCLESTKFRIYNNMFCAGFHEGGRDSCQGDSGGPHVTEVEGTSFLTGIISWGEECAMKGKYGIYTKVSEYVNWIKEKTKLT = 9.2 s⁻¹
• FIXa-Y155F/N260S/R318Y/R338E/T343R/R403E/E410N (protein) chain 1: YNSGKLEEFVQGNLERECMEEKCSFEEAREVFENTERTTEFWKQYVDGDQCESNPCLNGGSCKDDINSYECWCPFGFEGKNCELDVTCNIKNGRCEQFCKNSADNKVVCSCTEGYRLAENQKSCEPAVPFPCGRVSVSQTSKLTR chain 2: VVGGEDAKPGQFPWQVVLNGKVDAFCGGSIVNEKWIVTAAHCVETGVKITVVAGEHNIEETEHTEQKRNVIRIIPHHNYSAAINKYNHDIALLELDEPLVLNSYVTPICIADKEYTNIFLKFGSGYVSGWGRVFHKGYSALVLQYLRVPLVDRATCLESTKFRIYNNMFCAGFHEGGRDSCQGDSGGPHVTEVEGTSFLTGIISWGEECAMKGKYGIYTKVSEYVNWIKNKTKLT = 5.8 s⁻¹
• FIXa-Y155F/T343R/R403E/E410N (protein) chain 1: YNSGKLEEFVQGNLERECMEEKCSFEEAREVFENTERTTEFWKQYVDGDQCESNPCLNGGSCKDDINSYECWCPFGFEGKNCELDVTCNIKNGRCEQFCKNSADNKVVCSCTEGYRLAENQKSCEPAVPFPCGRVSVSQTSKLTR chain 2: VVGGEDAKPGQFPWQVVLNGKVDAFCGGSIVNEKWIVTAAHCVETGVKITVVAGEHNIEETEHTEQKRNVIRIIPHHNYNAAINKYNHDIALLELDEPLVLNSYVTPICIADKEYTNIFLKFGSGYVSGWGRVFHKGRSALVLQYLRVPLVDRATCLRSTKFRIYNNMFCAGFHEGGRDSCQGDSGGPHVTEVEGTSFLTGIISWGEECAMKGKYGIYTKVSEYVNWIKNKTKLT = 6.6 s⁻¹
• FIXa-Y155F/K247N/N249S/R318Y/T343R/R403E/E410N (protein) chain 1: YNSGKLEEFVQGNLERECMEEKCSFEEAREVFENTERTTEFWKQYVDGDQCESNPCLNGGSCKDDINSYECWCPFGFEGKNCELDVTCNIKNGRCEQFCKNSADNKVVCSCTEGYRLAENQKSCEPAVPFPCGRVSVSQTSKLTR chain 2: VVGGEDAKPGQFPWQVVLNGKVDAFCGGSIVNEKWIVTAAHCVETGVKITVVAGEHNIEETEHTEQNRSVIRIIPHHNYNAAINKYNHDIALLELDEPLVLNSYVTPICIADKEYTNIFLKFGSGYVSGWGRVFHKGYSALVLQYLRVPLVDRATCLRSTKFRIYNNMFCAGFHEGGRDSCQGDSGGPHVTEVEGTSFLTGIISWGEECAMKGKYGIYTKVSEYVNWIKNKTKLT = 9 s⁻¹
